The origin of these recorded values is ChEMBL document CHEMBL1201862.

system: NCI-H226; test: NCI tumour cell line growth inhibition, 48 h
Calls of active or inactive are those of the source. Rule as the data show it: active = GI50 up to about 1.1 µM and inactive = higher.
Can you tell me GI50 for the items I'm about to list?

Lab note: measured GI50 of `Cc1ccc(C2=Nc3cccc4cccc(c34)N2)cc1` was > 100 µM (inactive)

Lab note: measured GI50 of `COc1cc2c(cc1OCCCCCCCCN1C(=O)c3cccc4cccc(c34)C1=O)N=C[C@@H]1CCCN1C2=O` was 14.7 µM (inactive)

Lab note: measured GI50 of `O=C1Nc2ccc(Br)cc2/C1=N/Nc1ccc([N+](=O)[O-])cc1` was 18 µM (inactive)

Lab note: measured GI50 of `CCOC(=O)NN1C(=O)C(=P(c2ccccc2)(c2ccccc2)c2ccccc2)C(C(=O)OCC)=C1C` was > 100 µM (inactive)

Lab note: measured GI50 of CCCCCCCC(=O)OCC(COC(=O)C(C)(C)C)OC(=O)Cc1ccccc1 (stereo not given) was > 100 µM (inactive)

Lab note: measured GI50 of `CN(C)c1ccc(/C=C/c2ccc3ccccc3[n+]2C)cc1` was 3.13 µM (inactive)

Lab note: measured GI50 of `Cc1ccccc1Nc1nc2c(s1)C(=O)c1ccccc1C2=O` was 14.4 µM (inactive)

Lab note: measured GI50 of CCOC(=O)C1Nc2ccccc2[C@H]2OCC[C@@H]12 (stereo not given in full) was > 100 µM (inactive)

Lab note: measured GI50 of `COc1ccc2nc(C)cc(NCCCCCCCCCNc3cc(C)nc4ccc(OC)cc34)c2c1` was 6.18 µM (inactive)

Lab note: measured GI50 of `Nc1ccc(/C=C/c2ccc3cccnc3c2)cc1` was > 100 µM (inactive)

* * *

test system: HT-29; assay: NCI tumour cell line growth inhibition, 48 h
The source made the active and inactive calls. Cut-off read from the data, not from the text of the source: active = GI50 up to about 1.1 µM and inactive = higher.
Can you tell me GI50 for the items I'm about to list?

Lab note: measured GI50 of Cc1ccc(C(=O)O)c(CC2Cc3c(C)cccc3C2=O)c1 (stereo unspecified) was > 100 µM (inactive)

Lab note: measured GI50 of `N#CCCc1nc2ccc(Br)cc2c(=O)n1-c1ccc(O)c([N+](=O)[O-])c1` was 27.7 µM (inactive)

Lab note: measured GI50 of `O=C(NCCN1CCOCC1)c1cn2c(ccc3sc4ccccc4c(=O)c32)n1` was 6.56 µM (inactive)

Lab note: measured GI50 of `Cc1c(/C=N\NC(=S)NCCNC(=S)N/N=C\c2c(C)n(C)n(-c3ccccc3)c2=O)c(=O)n(-c2ccccc2)n1C` was > 100 µM (inactive)

Lab note: measured GI50 of `O=C(O)c1ccc(C2=Nc3cccc4cccc(c34)N2)cc1` was > 100 µM (inactive)

Lab note: measured GI50 of `O=C1c2ccccc2-c2c1c(-c1cccc(Br)c1)nc1ccc3ccccc3c21` was > 100 µM (inactive)

Lab note: measured GI50 of CCCCNC(=O)C1C2CCC(O2)C1C(=O)O (stereo unspecified) was 23.1 µM (inactive)

Lab note: measured GI50 of `O=C(c1ccc(Cl)cc1Cl)N(Cc1cccnc1)C(=S)N(Cc1cccnc1)C(=O)c1ccc(Cl)cc1Cl` was 2.38 µM (inactive)

Lab note: measured GI50 of `Cc1cc2c(=O)[nH]nc(N)c2c(N)n1` was > 100 µM (inactive)

Lab note: measured GI50 of `CCOC(=O)c1ccc(NCc2ccc3nc(OC)c(OC)nc3c2)cc1` was > 100 µM (inactive)

Lab note: measured GI50 of `O=C(O)CCNCCCNCCC(=O)O` was > 100 µM (inactive)

Lab note: measured GI50 of `CCc1ccccc1NC(=O)CCc1n[nH]c(=S)o1` was > 100 µM (inactive)

Lab note: measured GI50 of CC(=O)OCC(=O)O[C@@H]1[C@H]2[C@@H](OC(=O)c3ccccc3)[C@@H](C)C[C@]2(O)[C@H](OC(C)=O)[C@@]2(C)C(OC(C)=O)[C@]1(OC(C)=O)C[C@H]1C(=O)C(C)(C)C[C@@H]12 (stereo partly specified) was 25.8 µM (inactive)

Lab note: measured GI50 of `COc1ccc(NC(=O)CC(=O)N/N=C/c2ccc(N(CCC#N)S(=O)(=O)c3ccccc3)cc2)cc1` was > 100 µM (inactive)

Lab note: measured GI50 of `COc1ccc(-c2nc(SCC(=O)N/N=C/c3ccc(O)c(OC)c3)[nH]c2-c2ccc(OC)cc2)cc1` was 21.9 µM (inactive)

Lab note: measured GI50 of `Cc1ccc(-n2c(N)c(C#N)c3[nH]nc(N)c3c2=O)cc1` was > 100 µM (inactive)

Lab note: measured GI50 of `CCOC(=O)NN1C(=O)C(=P(c2ccccc2)(c2ccccc2)c2ccccc2)C(C(=O)OCC)=C1C` was > 100 µM (inactive)

Lab note: measured GI50 of CN1C(=O)C(O)C[C@@H]1c1ccc(F)cc1 (stereo partly specified) was > 100 µM (inactive)

Lab note: measured GI50 of `O=C(CCc1cccc(O)c1)NCCc1cccc(OCc2ccccc2)c1` was 16.6 µM (inactive)

Lab note: measured GI50 of `Cc1c(NC(=S)NN)c(=O)n(-c2ccccc2)n1C` was > 100 µM (inactive)

Lab note: measured GI50 of COC(=O)[C@@]1(C)CCC[C@]2(C(=O)O)C3Cc4occc4[C@H](C)[C@@H]3CCC21 (stereo partly specified) was 29 µM (inactive)

Lab note: measured GI50 of C=C(C)C1CC=C(C)[C@](O)(C2(O)C[C@H](C(=C)C)CC=C2C)C1 (stereo partly specified) was > 100 µM (inactive)

Lab note: measured GI50 of `Cc1cc2nc(CC(C(F)(F)F)C(F)(F)F)oc2cc1C` was 0.973 µM (active)

Lab note: measured GI50 of `Cc1ccc(/C=C2/N/C(=N\N=C/c3ccccc3)NC2=O)cc1` was 46.3 µM (inactive)

Lab note: measured GI50 of O=C(CNc1ccc(Cl)cc1Cl)NC1C=Cc2ccc(S(=O)(=O)Nc3ccc(Cl)cc3Cl)cc2C1=O (stereo unspecified) was > 100 µM (inactive)

Lab note: measured GI50 of C/C=C1\CC(C(=O)OCC)CCCCCCC1=O (stereo unspecified) was > 100 µM (inactive)

Lab note: measured GI50 of CCN(CC)C1Oc2cc3c(cc2C(c2cc(OC)c(O)c(OC)c2)C1C)OCO3 (stereo unspecified) was 7.31 µM (inactive)

Lab note: measured GI50 of `CN(C)CCc1ccc(Cl)cc1Cl` was > 100 µM (inactive)

Lab note: measured GI50 of `O=C1NC(N2CCCCC2)=N/C1=C\c1ccccc1` was > 100 µM (inactive)

Lab note: measured GI50 of `CC(C)(C)c1ccc(OCCOc2ccc(C(C)(C)C)cc2N)c(N)c1` was 10 µM (inactive)

Lab note: measured GI50 of `O=C(CC(=O)n1nc(-c2ccccc2)c(/N=N/c2ccc(Cl)cc2)c1-c1ccccc1)Nc1ccc(Cl)cc1` was > 43.3 µM (inactive)

Lab note: measured GI50 of CC(C)OCC(O)COc1ccc2ccc(=O)oc2c1 (stereo unspecified) was > 100 µM (inactive)

Lab note: measured GI50 of COC(=O)C1=C(C)NC(C)=C([N+](=O)[O-])C1c1cccc(N=O)c1 (stereo unspecified) was 16.8 µM (inactive)

Lab note: measured GI50 of `COC(=O)/C(=C\C(=O)c1ccc(Br)cc1)NN=C(c1ccccc1)c1ccccc1` was > 10 µM (inactive)

Lab note: measured GI50 of `CCOC(=O)NC(=O)c1cn(CCSCCOC(=O)NCCCCCCNC(=O)OCCSCCn2cc(C(=O)NC(=O)OCC)c(=O)n(C)c2=O)c(=O)n(C)c1=O` was 52.5 µM (inactive)

Lab note: measured GI50 of `Nc1cc(OCC2CCCCC2)nc(N)n1` was > 100 µM (inactive)

Lab note: measured GI50 of N#Cc1c(-c2ccccc2)cc(-c2ccccc2)n(C2OCC(O)C(O)C2O)c1=S (stereo unspecified) was 23 µM (inactive)

Lab note: measured GI50 of O=C(Cc1ccccc1)C(c1ccccc1)S(=O)(=O)c1ccccc1 (stereo unspecified) was > 100 µM (inactive)

Lab note: measured GI50 of C/C=C1\C(=O)OC2CCN3CCC(COC(=O)C(C)(O)C(C)C1O)C23 (stereo unspecified) was > 100 µM (inactive)

Lab note: measured GI50 of `C[N+](C)(CCNC(=O)c1cccc2cc3ccccc3nc12)Cc1ccc([N+](=O)[O-])s1` was > 25 µM (inactive)

Lab note: measured GI50 of CN(C)CCNC1=Nc2ccccc2C(=S)N2CSCC12 (stereo unspecified) was > 100 µM (inactive)

* * *

test system: U-251; test: NCI tumour cell line growth inhibition, 48 h
Activity calls are given as the source filed them. Rule as the data show it: active = GI50 up to about 1.1 µM and inactive = higher.
Assay metric: GI50

Lab note: measured GI50 of OC1C2C=CCC1CCC2 (stereo not drawn) was > 100 µM (inactive)

Lab note: measured GI50 of C/C=C1\CC(C(=O)OCC)CCCCCCC1=O (stereo not drawn) was > 100 µM (inactive)

Lab note: measured GI50 of `O=C1CC(=O)NC(NN2C(=O)/C(=C/C(=O)c3ccco3)N=C2c2ccccc2)=N1` was 47.5 µM (inactive)

Lab note: measured GI50 of `CCCCCCCC/C=C\CCCCCCCC(=O)NCCN(CCN)C(=O)CCCCCCC/C=C\CCCCCCCC` was > 100 µM (inactive)

Lab note: measured GI50 of `Nc1ccc(/C=C/c2ccc3cccnc3c2)cc1` was > 100 µM (inactive)

Lab note: measured GI50 of CCN(CC)C1Oc2cc3c(cc2C(c2cccc(OC)c2O)C1C)OCO3 (stereo not drawn) was 3.69 µM (inactive)

Lab note: measured GI50 of `O=C1C(Cl)=C(N2C(=O)CCCC2=O)C(=O)c2ccccc21` was 26 µM (inactive)

Lab note: measured GI50 of `COc1ccc2nc(C)cc(NCCCCCCCCCNc3cc(C)nc4ccc(OC)cc34)c2c1` was 2.07 µM (inactive)

Lab note: measured GI50 of `Clc1ccc(-c2nc(-c3ccc(Cl)cc3)[s+]s2)cc1` was 30.4 µM (inactive)

Lab note: measured GI50 of `C/C(=N\N=C(/S)SCc1ccccc1)c1ccccn1` was < 0.0192 µM (active)

Lab note: measured GI50 of Cc1ccc(C(=O)O)c(CC2Cc3c(C)cccc3C2=O)c1 (stereo not drawn) was > 100 µM (inactive)

Lab note: measured GI50 of `O=C(c1ccc(Cl)cc1Cl)N(Cc1cccnc1)C(=S)N(Cc1cccnc1)C(=O)c1ccc(Cl)cc1Cl` was 3.15 µM (inactive)

Lab note: measured GI50 of `CC(C)=CCC[C@@H](C)C1=C(O)C(=O)C(C)=C(Nc2ccccc2Cl)C1=O` was 16.3 µM (inactive)

Lab note: measured GI50 of `O=C(O)/C=C/c1ccncc1` was 0.173 µM (active)

Lab note: measured GI50 of `NCCSc1nc2ccccc2s1` was 21.7 µM (inactive)

Lab note: measured GI50 of `CCOC(=O)c1ccc2nc(-c3ccc(S(=O)(=O)F)cc3)cc(O)c2c1` was 34.9 µM (inactive)

Lab note: measured GI50 of `CCc1ccccc1NC(=O)CCc1n[nH]c(=S)o1` was > 100 µM (inactive)

Lab note: measured GI50 of `COc1ccc(-[n+]2nc(S(=O)(=O)O)c(/C=C/c3ccc(N(C)C)cc3)cc2C#N)cc1` was > 100 µM (inactive)

Lab note: measured GI50 of `COc1ccc(-c2cc(C(=O)Nc3cccc(C(F)(F)F)c3)nc(S)n2)cc1` was > 100 µM (inactive)

Lab note: measured GI50 of `COc1ccc(-c2nc(-c3cc4c(ccc5ccccc54)oc3=O)cs2)cc1` was > 10 µM (inactive)

Lab note: measured GI50 of Cc1cc(Cl)cc2c1NC(=O)C2(O)C(C)C(=O)c1ccc(Cl)cc1 (stereo not drawn) was 72.4 µM (inactive)

Lab note: measured GI50 of COC(=O)C1C(OC(=O)c2ccccc2)CC2CCC1N2C(N)=O (stereo not drawn) was > 100 µM (inactive)

Lab note: measured GI50 of `Cc1ccccc1C(=O)c1c(O)c2c(c(O)c1Br)CCCC2` was 16.7 µM (inactive)
